Source listed as paper PMC4365404.

- assayedTarget: T1, pWT43 PDZ2as, the alternatively spliced form of the second PDZ domain of protein tyrosine phosphatase BL …
- T1 chain: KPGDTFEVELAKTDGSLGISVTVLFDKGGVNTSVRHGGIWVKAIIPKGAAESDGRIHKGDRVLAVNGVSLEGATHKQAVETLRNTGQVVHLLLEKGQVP
- methodSummary: temperature-jump fluorescence relaxation kinetics; constant pWT43 PDZ2as 2 uM with dansylated peptide 100 to 400 uM (pseudo-first order); 50 mM sodium phosphate pH 7.2, 150 mM KCl; jump from 16 to 25 °C; KD from kinetics
- particulars: both partners purified
Where no end group is shown, it is not given here. The star is where a group is joined. Dansyl = CN(C)c1cccc2c(S(=O)(=O)*)cccc12
quantityMeasured: pKd
FYI, pKd means -log10 of a concentration in mol per litre.

Determine from records and report pKd for Dansyl-SYLVTSV (C-terminus of the tumour suppressor protein APC; the last 7 residues; also called APC peptide; source: bought: JPT Peptide Technologies (Berlin, Germany), HPLC-purified, purity higher than 95%) [Dansylated peptide corresponding to the C-terminus of APC (D-SYLVTSV)]
3.45

Annotate the binder Dansyl-EQVSAV (Which natural protein the peptide comes from is in doubt; also called RIL peptide; source: bought: JPT Peptide Technologies (Berlin, Germany), HPLC-purified, purity higher than 95%) [Dansylated peptide corresponding to the C-terminus of RIL (D-EQVSAV)] with its measured pKd.
3.79
